ASSAY_EXPLANATION: protein stability index of a GFP-peptide fusion (yeast GPS) (PSI 1-4); higher = more stable; sorted into four equal gates, so the index is relative within each strain
CONDITION_DETAILS: doa10∆
Values of protein stability index greater than or equal to 2 map to 1 (yes); values below map to 0 (no).

>  <SEQ>
GGSFGNREEFINKLVKA [RPL7B]

>  <CLASS_ASSIGNMENT>
1 (yes)

$$$$
>  <SEQ>
MHSYFIFKDLVTVFLFM [COB]

>  <CLASS_ASSIGNMENT>
0 (no)

$$$$
>  <SEQ>
KGVATTREKVLEDKLRA [RRP46]

>  <CLASS_ASSIGNMENT>
1 (yes)

$$$$
>  <SEQ>
EHKQLVAEIVQNVISLG [RPC82]

>  <CLASS_ASSIGNMENT>
1 (yes)

$$$$
>  <SEQ>
MGKGTPSFGKRHNKSHT [RPL37A]

>  <CLASS_ASSIGNMENT>
1 (yes)

$$$$
>  <SEQ>
RAIDSLIQKGYLQRGDD [CDC53]

>  <CLASS_ASSIGNMENT>
0 (no)

$$$$
>  <SEQ>
DLEEVKRFQVLYPCYFD [SEC65]

>  <CLASS_ASSIGNMENT>
1 (yes)

$$$$
>  <SEQ>
KLGIESKQPNSAIRKCV [RPS23A]

>  <CLASS_ASSIGNMENT>
1 (yes)

$$$$
>  <SEQ>
YALFLKALRRKIYINLA [SSN2]

>  <CLASS_ASSIGNMENT>
0 (no)

$$$$
>  <SEQ>
WKRQISYFLKLLGNCYS [SRB8]

>  <CLASS_ASSIGNMENT>
0 (no)

$$$$
>  <SEQ>
ESENFKIIALQPNEISF [RGR1]

>  <CLASS_ASSIGNMENT>
1 (yes)

$$$$
>  <SEQ>
GRLASTIAKQVLNGQKI [RPL16B]

>  <CLASS_ASSIGNMENT>
1 (yes)

$$$$
>  <SEQ>
DYGEEIKSGVAKLESLL [MTW1]

>  <CLASS_ASSIGNMENT>
1 (yes)

$$$$
>  <SEQ>
NHLDELQKKFVTKQSEL [SMC1]

>  <CLASS_ASSIGNMENT>
1 (yes)

$$$$
>  <SEQ>
KLYKTPIPIPAFADRLG [PRE10]

>  <CLASS_ASSIGNMENT>
0 (no)

$$$$
>  <SEQ>
QEFFFHAMGGREGLIDT [RPO21]

>  <CLASS_ASSIGNMENT>
1 (yes)

$$$$
>  <SEQ>
QWIKFLLHTLYLRPASA [SSN8]

>  <CLASS_ASSIGNMENT>
0 (no)

$$$$
>  <SEQ>
MSESSDISAMQPVNPKP [SMX3]

>  <CLASS_ASSIGNMENT>
1 (yes)

$$$$
>  <SEQ>
VSALDKCIKYSEKLITK [ECM29]

>  <CLASS_ASSIGNMENT>
1 (yes)

$$$$
>  <SEQ>
EQKITEIEDGQDGGVTP [RPO21]

>  <CLASS_ASSIGNMENT>
1 (yes)

$$$$
>  <SEQ>
PIKNRTSKSFSKLLYDD [SIN4]

>  <CLASS_ASSIGNMENT>
1 (yes)

$$$$
>  <SEQ>
YLMDSKNVRTRIKLATT [RRI1]

>  <CLASS_ASSIGNMENT>
1 (yes)

$$$$
>  <SEQ>
EARLRNLTYSSGLFVDV [RPB2]

>  <CLASS_ASSIGNMENT>
1 (yes)

$$$$
>  <SEQ>
EAASSNKSFIVDQGQIY [ITC1]

>  <CLASS_ASSIGNMENT>
1 (yes)

$$$$
>  <SEQ>
RGFKVGLVCADTFRAGA [SRP54]

>  <CLASS_ASSIGNMENT>
1 (yes)

$$$$
>  <SEQ>
PTATPSPFRPLEKTSRI [YMR153W/NUP53]

>  <CLASS_ASSIGNMENT>
1 (yes)

$$$$
>  <SEQ>
DHAIVTSPTMPDYYVSI [RPT2]

>  <CLASS_ASSIGNMENT>
1 (yes)

$$$$
>  <SEQ>
LFQELSKVVDDMPSLRL [GRR1]

>  <CLASS_ASSIGNMENT>
1 (yes)

$$$$
>  <SEQ>
VMTYKGEVLGITRFGLS [RPO31]

>  <CLASS_ASSIGNMENT>
1 (yes)

$$$$
>  <SEQ>
DVIHFEDSSILQSIVNE [PCI8]

>  <CLASS_ASSIGNMENT>
1 (yes)

$$$$
>  <SEQ>
FGTGKRLAKKVARRNAD [RPS24A]

>  <CLASS_ASSIGNMENT>
1 (yes)

$$$$

----------
ASSAY_EXPLANATION: protein stability index of a GFP-peptide fusion (yeast GPS) (PSI 1-4); higher = more stable; sorted into four equal gates, so the index is relative within each strain
CONDITION_DETAILS: pdr5∆
Values of protein stability index greater than or equal to 3 map to y; values below map to n.

>  <SEQ>
LDVTKEAQANLLTAKHG [RPO21]

>  <CLASS_ASSIGNMENT>
y

$$$$
>  <SEQ>
VNNGNIPSQRGTSTTHG [SIR3]

>  <CLASS_ASSIGNMENT>
n

$$$$
>  <SEQ>
SQLDLFLRTMKLTSEET [GRR1]

>  <CLASS_ASSIGNMENT>
n

$$$$
>  <SEQ>
MAKDNLTNLLSQLNIQL [SRP72]

>  <CLASS_ASSIGNMENT>
y

$$$$
>  <SEQ>
TLIKKKQDEKKSSELEL [SMC2]

>  <CLASS_ASSIGNMENT>
y

$$$$
>  <SEQ>
FLSQGLHVVITLLREVV [CSN12]

>  <CLASS_ASSIGNMENT>
n

$$$$
>  <SEQ>
SAHQSPIMQTQMPLNSN [SNF2]

>  <CLASS_ASSIGNMENT>
n

$$$$

----------
ASSAY_EXPLANATION: protein stability index of a GFP-peptide fusion (yeast GPS) (PSI 1-4); higher = more stable; sorted into four equal gates, so the index is relative within each strain
CONDITION_DETAILS: pdr5∆
REPORTED_ENDPOINT: protein stability index

>  <SEQ>
PAKVAEEGINKFKKEKF [SRP54]

>  <VALUE_MEASURED>
3.44

$$$$
>  <SEQ>
IECFKPGDIVRAQVLSL [CSL4]

>  <VALUE_MEASURED>
2.04

$$$$
>  <SEQ>
MSSTNGNAPATPSSDQN [SOH1]

>  <VALUE_MEASURED>
2.75

$$$$
>  <SEQ>
TQQAVNLEKNYLAKLSK [IRR1]

>  <VALUE_MEASURED>
3.34

$$$$
>  <SEQ>
KDHLLLEEEFVSNSEIL [RPT2]

>  <VALUE_MEASURED>
2.83

$$$$
>  <SEQ>
SYNNTGISDDENDEEDI [RRP4]

>  <VALUE_MEASURED>
3.27

$$$$
>  <SEQ>
GQFVTLGCTLVTLLANV [RMP1]

>  <VALUE_MEASURED>
2.89

$$$$
>  <SEQ>
KPGQNNRQQKKRRFDPS [RRP6]

>  <VALUE_MEASURED>
2.99

$$$$
>  <SEQ>
YSSKPYKVDNMTRILPQ [RPN2]

>  <VALUE_MEASURED>
2.88

$$$$
>  <SEQ>
VHPFHVLRINKMLSCAG [RPL10]

>  <VALUE_MEASURED>
1.21

$$$$
>  <SEQ>
GIAIGLNKGKKVTSMTP [RPL36A]

>  <VALUE_MEASURED>
3.13

$$$$
>  <SEQ>
GNRNSSSVFLPSRKDCM [BRR2]

>  <VALUE_MEASURED>
3.16

$$$$
>  <SEQ>
AGVVQDIGSDPTLPRSD [RPB9]

>  <VALUE_MEASURED>
3.2

$$$$
>  <SEQ>
RRQAVDVSPLRRVNQAI [RPS5]

>  <VALUE_MEASURED>
2.62

$$$$
>  <SEQ>
NENNSNGGEDTSVENEG [REC8]

>  <VALUE_MEASURED>
3.44

$$$$

----------
Collected protein stability index values appear next to each entry.
ASSAY_EXPLANATION: protein stability index of a GFP-peptide fusion (yeast GPS) (PSI 1-4); higher = more stable; sorted into four equal gates, so the index is relative within each strain
CONDITION_DETAILS: doa10∆

>  <SEQ>
YDGVERVSLQDIKDFAD [QCR2]

>  <protein stability index>
2.84

$$$$
>  <SEQ>
VTPEDVMTISSLEQRTL [RPC82]

>  <protein stability index>
3.2

$$$$
>  <SEQ>
NTCTISTSKFESQYPIV [SWP82]

>  <protein stability index>
2.57

$$$$
>  <SEQ>
SNDTTAFNDSCVNLSLF [SRB8]

>  <protein stability index>
3.07

$$$$
>  <SEQ>
VLKSSVYEYVIASTLGP [RPC82]

>  <protein stability index>
1.43

$$$$
>  <SEQ>
DIILGQNIKAPSVKRQK [PRP8]

>  <protein stability index>
2.44

$$$$
>  <SEQ>
ELRRPGVDNLRRMGILK [RPO31]

>  <protein stability index>
3.17

$$$$
>  <SEQ>
PFKRKMLLVDIIPSRMG [REC8]

>  <protein stability index>
1.81

$$$$
